Data credit: ChEMBL document CHEMBL5532758

experiment: Cytotoxicity against human MCF-10A cells assessed as inhibition of cell proliferation incubated for 48 hrs by MTT assay; assay type: toxicity, cell-based
measured_metric: IC50 at 48 h
The answer should read as a number with its unit following.

molecular_string | result
O=C(O)CC[Se][Se]CCC(=O)O | 61.2 µM

Could you now consider this next compound?
Prompt line: What value of measured IC50 at 48 h is listed for [2H]C([2H])([Se][Se]C([2H])([2H])C([2H])([2H])C(=O)O)C([2H])([2H])C(=O)O ?
Response line: 150 µM

---

test: Therapeutic index, ratio of IC50 for cytotoxicity against human WI-26 AV4 cells to IC50 for antiproliferative activity against human NCI-H3122 cells by MTT assay; assay type: toxicity, cell-based; conditions: WI-26 AV4 cells versus NCI-H3122 cells, read-out: Ratio IC50
measured_metric: selectivity ratio
Form: value (number only, do not type unit).

molecular_string | readout_number
[2H]C([2H])([Se][Se]C([2H])([2H])C([2H])([2H])C(=O)O)C([2H])([2H])C(=O)O | 11.8

Prompt line: Please look up its selectivity ratio: O=C(O)CC[Se][Se]CCC(=O)O
Response line: 7
